- measurementNotes: in vitro
- measurementContext: human, hela cells, % viability
viability at 28.5 h, 10 µM values by entry
State just the number; it will be interpreted in %.

Illustrative cases are given below, each with its answer.
{"compound": "Cc1nc(CNC(=O)NC2CCCN(c3ncccn3)C2)cs1 (stereo not shown) [CBK305640]", "viability at 28.5 h, 10 µM / %": 95.3}
{"compound": "CCOC(=O)C(NC(=O)CCn1ccc2ccncc21)C(C)C (stereo not shown) [CBK284719]", "viability at 28.5 h, 10 µM / %": 91.6}
{"compound": "CC(NC(=O)C1CC(=O)N(c2cccc(F)c2)C1)C1CC2CCC1C2 (stereo not shown) [CBK281664]", "viability at 28.5 h, 10 µM / %": 99.9}
{"compound": "Cc1ccc(Nc2cc(-c3cccc4cccnc34)ncn2)cc1NS(C)(=O)=O [CBK091152]", "viability at 28.5 h, 10 µM / %": 92.4}
{"compound": "Cc1sc2ncn(CCC(=O)O)c(=O)c2c1C [CBK288191]", "viability at 28.5 h, 10 µM / %": 115}
{"compound": "O=C(NC1CCN(Cn2nnc3ccccc3c2=O)CC1)C1CC1 [CBK305584]", "viability at 28.5 h, 10 µM / %": 82.3}
{"compound": "Cc1cc(=O)[nH]c(N/N=C/c2ccc(Cl)cc2Cl)n1 [CBK024387]", "viability at 28.5 h, 10 µM / %": 95.8}
{"compound": "Cc1cccc(NC(=O)CC(C(=O)O)N2CCOCC2)c1 (stereo not shown) [CBK266925]", "viability at 28.5 h, 10 µM / %": 96.3}

Req: Look at this compound and give its reported viability at 28.5 h, 10 µM. O=C(c1ccc(N2CC=CCC2)nc1)N1CCC(N2CCOCC2)CC1 [CBK307334]
Resp: 80

Req: Look at this compound and give its reported viability at 28.5 h, 10 µM. CC(=O)Nc1cccc(Oc2nccnc2-c2ccc(C)cc2C)c1 [CBK106986]
Resp: 95.3
